Just for reference, patent US20230050653A1 is where these values come from.

Test: In vivo pharmacokinetic study in mice
Details: mouse, plasma, Iv, 3.4 mg/kg
endpoint: AUC(0-t)

Name the reported AUC(0-t) value associated with the compound COc1cc(F)cc(CNC(=O)c2ncn3cc(-c4cn[nH]c4)ccc23)c1 [Compound T238]
10500 ng·h/mL

----------
Assay: In vivo pharmacokinetic study in mice
Details: mouse, plasma, Iv, 3 mg/kg
endpoint: Cmax (µg/mL)
Quick reminder: number only, in µg/mL, skip the unit.

I am curious: what Cmax value has been reported for COc1cc(F)cc(CNC(=O)N2CCc3cc(-c4cn[nH]c4)ccc32)c1 [Compound T202] ?
2.34

Likewise for COc1cc(F)cc(CNC(=O)N2CCc3cc(-c4cn[nH]c4)ccc3C2)c1 [Compound T201] ?
0.704
